Assay: Toxicity liver stage against HepG2, at 10uM
Type: cell-based
Design: test concentration 10 uM, cell line HepG2-A16-CD81EGFP
Settings: human, HepG2-A16-CD81EGFP cells; read-out: INHIBITION
Give measured cytotoxicity at 10 µM for each item. Keep answers brief.
Please state the figure in %; there is no need to write the unit.

Q. Quick one: cytotoxicity at 10 µM for CC(c1ccon1)N(C)C(=O)C1CCN(C(=O)C2CCC2)CC1 (configuration not stated) ?
A. 7.13

Q. Quick one: cytotoxicity at 10 µM for `CC(C)Cc1cc(C(=O)NCCn2nc3ccccn3c2=O)[nH]n1` ?
A. -16.3

Q. Quick one: cytotoxicity at 10 µM for `COCCN1CCC2(CCN(Cc3cccs3)CC2)C1=O` ?
A. 1.22

Q. Quick one: cytotoxicity at 10 µM for O=C1CCCc2occ(C(=O)N3CCCC(O)(CO)C3)c21 (configuration not stated) ?
A. -10.1

Q. Quick one: cytotoxicity at 10 µM for Cc1ccc(C2CN(CCS(=O)(=O)C(C)C)CCO2)c(C)c1 (configuration not stated) ?
A. 8.25

Q. Quick one: cytotoxicity at 10 µM for `Cn1nnc(C2(NC(=O)c3ccccc3)CCCC2)n1` ?
A. -10.5

Q. Quick one: cytotoxicity at 10 µM for `Cc1ccc(S(=O)(=O)N2CCc3nc(C4CCNCC4)ncc3C2)cc1` ?
A. -3.24

Q. Quick one: cytotoxicity at 10 µM for O=C(CCc1cccnc1)N1CCCCC1c1ccn2ccnc2n1 (configuration not stated) ?
A. -4.28

Q. Quick one: cytotoxicity at 10 µM for CN(C)c1ncc(CN2CCCC(Nc3ccc4c(c3)OCCO4)C2)s1 (configuration not stated) ?
A. 8.12

Q. Quick one: cytotoxicity at 10 µM for `Cc1ncsc1C(=O)N1CCn2nc(CN3CCSCC3)cc2C1` ?
A. -51

Q. Quick one: cytotoxicity at 10 µM for `O=C(Nc1nc2c(s1)CN(S(=O)(=O)C1CC1)CC2)c1ccsc1` ?
A. 24.9

Q. Quick one: cytotoxicity at 10 µM for Cc1cc(CN(C)C(C(=O)O)c2cccc(C(F)(F)F)c2)on1 (configuration not stated) ?
A. -6.33

Q. Quick one: cytotoxicity at 10 µM for `COc1cc2cc(C)c(SCCN3CCCCC3)nc2cc1OC` ?
A. -0.883

Q. Quick one: cytotoxicity at 10 µM for `CCSc1cc(C(=O)N(CC(F)F)C(C)C)ccn1` ?
A. 4.64

Q. Quick one: cytotoxicity at 10 µM for O=C(Cn1cc(Cl)cn1)N1CCCC(c2cc3ccccc3cn2)C1 (configuration not stated) ?
A. -27.3

Q. Quick one: cytotoxicity at 10 µM for COc1cccc2c1OCC(C(=O)N(C)CCCc1cnn(C)c1)C2 (configuration not stated) ?
A. -2.98

Q. Quick one: cytotoxicity at 10 µM for Cc1nc(CNCC2COCc3c(-c4ccoc4)nnn3C2)cs1 (configuration not stated) ?
A. 8.22

Q. Quick one: cytotoxicity at 10 µM for `CN1C[C@@H]2C[C@H](C(=O)Nc3cccnc3)[C@H](C1)O2` ?
A. -71.1

Q. Quick one: cytotoxicity at 10 µM for CN1CCCCC12Cc1ccccc1CN(C(=O)C1CCCC1)C2 (configuration not stated) ?
A. 2.88

Q. Quick one: cytotoxicity at 10 µM for O=C(CC1CC2(CCNCC2)c2ccccc21)NCC1CC1 (configuration not stated) ?
A. -118

Q. Quick one: cytotoxicity at 10 µM for Cc1n[nH]cc1CNC(C(=O)N1CCOCC1)c1ccccc1 (configuration not stated) ?
A. 7.57

Q. Quick one: cytotoxicity at 10 µM for Cc1cc(CN2CCN(C(=O)NC(C)c3cccnc3)CC2)no1 (configuration not stated) ?
A. -11.8

Q. Quick one: cytotoxicity at 10 µM for CCc1[nH]c2c(CNC(=O)C3CNC(=O)C3)cc(C)cc2c1C (configuration not stated) ?
A. 2.75

Q. Quick one: cytotoxicity at 10 µM for `CC(C)(NCC(=O)NC(=O)NC1CC1)c1ccc2c(c1)OCO2` ?
A. -1.27

Q. Quick one: cytotoxicity at 10 µM for `O=C(NCC1(O)CCSCC1)c1ccoc1` ?
A. -6.61

Q. Quick one: cytotoxicity at 10 µM for c1cncc(OCC2CC3(CCN(CC4CC4)CC3)CO2)c1 (configuration not stated) ?
A. 4.95

Q. Quick one: cytotoxicity at 10 µM for `Cc1c(-c2ccccc2)nc2c(c(C)c(C)n2CCN(C)C)c1N` ?
A. 24.6

Q. Quick one: cytotoxicity at 10 µM for `Cc1cnc(N2CCC3(CC2)CCN(c2cncnc2)C3=O)nc1` ?
A. -13

Q. Quick one: cytotoxicity at 10 µM for C=C(C)COc1ccccc1NC(=O)N1CCOCC1CO (configuration not stated) ?
A. -4.1

Q. Quick one: cytotoxicity at 10 µM for `CCN(CC)c1ccc(CNC(=O)c2cccc(C)n2)cn1` ?
A. 9.47

Q. Quick one: cytotoxicity at 10 µM for `Cc1cc(CNC(=O)c2ccc(F)c(COCC3CC3)c2)no1` ?
A. -0.429

Q. Quick one: cytotoxicity at 10 µM for `Cc1ccc(N2CCCN(C(=O)c3n[nH]c4c3CCC4)CC2)nn1` ?
A. 3.81

====

Assay: Toxicity liver stage against HepG2, at 10uM
Format: cell-based
Parameters: test concentration 10 uM, cell line HepG2-A16-CD81EGFP
Details: human, HepG2-A16-CD81EGFP cells; read-out: INHIBITION
valueKind: cytotoxicity at 10 µM (%)
Please state the figure in %; there is no need to write the unit.

Q. Quick one: cytotoxicity at 10 µM for COC(=O)C(CNC(=O)Nc1nncs1)Cc1cccc(C)c1 (centres undefined) ?
A. 6.53

Q. Quick one: cytotoxicity at 10 µM for `NC(=O)Nc1ccc(C(=O)NCCn2cccc2)cc1` ?
A. -1.23

Q. Quick one: cytotoxicity at 10 µM for `CCN(Cc1ccoc1)C(=O)c1ccncc1O` ?
A. 6.85

Q. Quick one: cytotoxicity at 10 µM for `CCC1=N[C@@]2(CC[C@@H]3CN(S(=O)(=O)CC(C)C)C[C@@H]32)C(=O)N1C` ?
A. 5.24

Q. Quick one: cytotoxicity at 10 µM for CCN1CC2(CC1=O)CN(C(C)=O)CCN(C(=O)NC)C2 (centres undefined) ?
A. -3.62

Q. Quick one: cytotoxicity at 10 µM for `CCCn1ccnc1CN1CCC(Oc2ccc(Cl)cc2)(C(=O)O)CC1` ?
A. 3.47

Q. Quick one: cytotoxicity at 10 µM for `COc1cc(C)c2c(c1C)C[C@H]([C@H](C)C(=O)O)CC2` ?
A. -0.95

Q. Quick one: cytotoxicity at 10 µM for `CC(C)c1nnc(N2C[C@@H](CN(C)CCO)[C@@H](CO)C2)s1` ?
A. -2.48

Q. Quick one: cytotoxicity at 10 µM for `O=C(OC1CCC1)c1ncccc1C(F)(F)F` ?
A. 10.6

Q. Quick one: cytotoxicity at 10 µM for `CC(C)CCN1C[C@@H]2OCCN(c3ncc(F)cn3)[C@@H]2C1` ?
A. 4.91

Q. Quick one: cytotoxicity at 10 µM for `Cc1nn(-c2ccccn2)c(C)c1[C@@H]1C=C[C@@H](NC(=O)CCC(=O)O)C1` ?
A. 4.59

Q. Quick one: cytotoxicity at 10 µM for Cc1c[nH]c(C2COCCN2C(=O)CCc2c(C)n[nH]c2C)n1 (centres undefined) ?
A. -0.615

Q. Quick one: cytotoxicity at 10 µM for Cc1cc(C)c(N(CC(O)CNCc2ccco2)S(C)(=O)=O)c(C)c1 (centres undefined) ?
A. -12.5

Q. Quick one: cytotoxicity at 10 µM for Cc1ccc(CN2CCC3(CC2)CC(NC(=O)c2ccccn2)CO3)o1 (centres undefined) ?
A. 3.8

Q. Quick one: cytotoxicity at 10 µM for Cc1cc(N2CCC3(CCCN(CCO)C3=O)C2)nc(C)c1C#N (centres undefined) ?
A. 7.41

Q. Quick one: cytotoxicity at 10 µM for `CC(C)N1CCC(c2nccnc2Nc2ncccn2)CC1` ?
A. -23.7

Q. Quick one: cytotoxicity at 10 µM for `O=C1C[C@H]2[C@@H](CCN2C(=O)c2ccc[nH]2)N1CCN1CCCC1` ?
A. -4.28

Q. Quick one: cytotoxicity at 10 µM for CCS(=O)(=O)N1Cc2ccccc2CC1C(=O)OCc1cc(C)no1 (centres undefined) ?
A. -13

Q. Quick one: cytotoxicity at 10 µM for N#CC1COCCN1C(=O)c1ccc2cc[nH]c2c1 (centres undefined) ?
A. 7.75

Q. Quick one: cytotoxicity at 10 µM for `CN(C)c1nccc(N2CCO[C@H]3CN(Cc4nccn4C)C[C@H]32)n1` ?
A. -123

Q. Quick one: cytotoxicity at 10 µM for `COc1ccc(C(=O)N2C[C@@H](CN3CCOCC3)[C@@H](CO)C2)c(C)c1` ?
A. -13.8

Q. Quick one: cytotoxicity at 10 µM for `CN(C)C(=O)[C@H]1C[C@H]2OCC[C@H]2N(Cc2ccc(F)cc2)C1` ?
A. -76.1

Q. Quick one: cytotoxicity at 10 µM for `Clc1ccc2oc(C3CCN(Cc4nc(C5CC5)no4)CC3)nc2c1` ?
A. -5.15

Q. Quick one: cytotoxicity at 10 µM for `NC(=O)c1cccc(OCC(=O)NS(=O)(=O)c2ccc3c(c2)CCC3)c1` ?
A. -6.22

Q. Quick one: cytotoxicity at 10 µM for CN(Cc1cn2c(n1)CN(C(=O)C1CCCO1)CC2)Cc1ccco1 (centres undefined) ?
A. 8.24

Q. Quick one: cytotoxicity at 10 µM for Brc1csc(-c2noc(C3COCCO3)n2)c1 (centres undefined) ?
A. -1.92

Q. Quick one: cytotoxicity at 10 µM for `C/C=C(\C)CN1C[C@@H](NC(=O)c2ccc(F)c(F)c2)C[C@H]1C(=O)NCC` ?
A. 14

Q. Quick one: cytotoxicity at 10 µM for `Cc1ccc(NC(=O)CNc2ccn(CC(N)=O)n2)c(Cl)c1` ?
A. 4.44

Q. Quick one: cytotoxicity at 10 µM for CC1N(c2cnn(C)c2)C(=O)COC12CCN(CC1CC1)CC2 (centres undefined) ?
A. 3.68

Q. Quick one: cytotoxicity at 10 µM for CCc1nc(C2CCCN2Cc2ccn(C)c(=O)c2)no1 (centres undefined) ?
A. -4.25

Q. Quick one: cytotoxicity at 10 µM for Cn1c(Cl)cnc1CN1CCCC1c1ccc2c(c1)OCCO2 (centres undefined) ?
A. -1.29

Q. Quick one: cytotoxicity at 10 µM for `CNC(=O)c1cc2c(nc1NCC(C)C)CCN(CC1CC1)CC2` ?
A. -158

Q. Quick one: cytotoxicity at 10 µM for CCC(C)(CNC(=O)Nc1nccs1)N1CCOCC1 (centres undefined) ?
A. -6.46

Q. Quick one: cytotoxicity at 10 µM for CCOc1ccc(C2CCCN2Cc2nnnn2C2CC2)cc1 (centres undefined) ?
A. 6.26

Q. Quick one: cytotoxicity at 10 µM for `CC(C)Cc1cc(NC(=O)c2ccncc2)n(C)n1` ?
A. -0.502

Q. Quick one: cytotoxicity at 10 µM for `COc1ccncc1NCc1ccsc1` ?
A. 19

Q. Quick one: cytotoxicity at 10 µM for Cc1ccc(Cl)cc1N1CCC(CNC(=O)Cn2cccn2)C1 (centres undefined) ?
A. -6.72

Q. Quick one: cytotoxicity at 10 µM for `NC(=O)c1ccc(N2CCN(Cc3c(Cl)cncc3Cl)CC2)nc1` ?
A. 10.6

Q. Quick one: cytotoxicity at 10 µM for Cc1cc2ccccc2n1CCC(=O)N1CCCC1Cn1cccn1 (centres undefined) ?
A. 2.15
